Target: T1, IR485 construct of human insulin receptor (human, UniProt P06213 28-512)
T1 construct: The tag was not removed for ITC; Expressed in Lec8 mutant CHO cells; also called insulin mini-receptor IR485; first three domains of IR (L1-CR-L2)
T1 chain: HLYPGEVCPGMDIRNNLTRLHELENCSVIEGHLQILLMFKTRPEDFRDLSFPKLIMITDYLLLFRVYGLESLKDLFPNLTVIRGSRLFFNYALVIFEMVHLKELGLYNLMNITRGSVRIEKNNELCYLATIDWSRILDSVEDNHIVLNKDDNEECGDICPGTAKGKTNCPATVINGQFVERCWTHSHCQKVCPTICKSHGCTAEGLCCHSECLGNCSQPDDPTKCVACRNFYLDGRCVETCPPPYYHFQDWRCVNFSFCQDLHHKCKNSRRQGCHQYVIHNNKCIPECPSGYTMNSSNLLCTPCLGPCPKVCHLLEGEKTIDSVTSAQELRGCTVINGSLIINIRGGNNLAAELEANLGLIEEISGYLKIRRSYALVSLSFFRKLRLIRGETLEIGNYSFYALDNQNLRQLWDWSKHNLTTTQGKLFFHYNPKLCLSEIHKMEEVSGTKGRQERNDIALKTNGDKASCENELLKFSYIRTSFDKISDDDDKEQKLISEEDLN
Test: ITC, 25 °C, peptide titrated into IR485, single-site fit, mean of three
readout kind: pKd
Answers are plain numbers, as −log10 of the molar value.

VFENFLHNSIFVPRPE (Mature IGF-1R numbering; also called IGF-1R αCT; IGF1R-αCT) [IGF-1R classical α-chain C-terminal peptide (residues 691-706)]    4.75
TFEDYLHNVVAVPRPS (also called IR αCT.714A; IR-αCT.714A) [F714A mutant of the IR classical αCT peptide]    5.19

Which measured pKd value corresponds to TFEDYLHNVVFVPRPS (Mature IR-A numbering; also called IR αCT; IR-αCT) [IR classical α-chain C-terminal peptide (residues 704-719)] ?
5.41
